Read-out: matrix metalloproteinase-10 (MMP10), MMP10 (gene 4319)
Experiment: LTEA_HepaRG_MMP10: Life Technologies and Expression Analysis (LTEA) Assay for matrix metalloproteinase-10 (MMP10) using HepaRG (AID 2283517)
Settings: mRNA level, 48 h; actives raise or lower the signal
Activity calls are given as the source filed them. How the source made its calls: active means hit-call score of the fitted dose curve at least 0.9, where 1 is the maximum; inactive means score below 0.9.
Can you answer with just one of these options? 1.0 (active), 0.0 (inactive)

Below, 8 compounds whose answers are already recorded.
1) COP(=S)(OC)Oc1ccc([N+](=O)[O-])c(C)c1; 0.0
2) CCC(C)n1c(=O)[nH]c(C)c(Br)c1=O (stereo not drawn); 0.0
3) CCOP(=S)(OCC)Oc1nc(Cl)n(C(C)C)n1; 0.0
4) COCC(C)N(C(=O)CCl)c1c(C)csc1C (stereo not drawn); 0.0
5) CC(C)(C)C(=O)C(Oc1ccc(Cl)cc1)n1cncn1 (stereo not drawn); 0.0
6) CSC(=O)c1c(C(F)F)nc(C(F)(F)F)c(C(=O)SC)c1CC(C)C; 0.0
7) Nc1cnn(-c2ccccc2)c(=O)c1Cl; 0.0
8) CNC(=O)N(C)c1nnc(C(C)(C)C)s1; 0.0

Inquiry: Per the assay record, what outcome was assigned to CS(=O)(=O)c1cc(C(F)(F)F)ccc1C(=O)c1cnoc1C1CC1 ?
Reply text: 0.0

Inquiry: // query: COCC(=O)N(c1c(C)cccc1C)C(C)C(=O)OC (stereo not drawn)
Reply text: 0.0

Inquiry: Same read-out for CCOc1nc(F)cc2nc(S(=O)(=O)Nc3c(Cl)cccc3Cl)nn12 ?
Reply text: 0.0

Inquiry: Another: Cc1c(COC(=O)[C@@H]2[C@H](/C=C(\Cl)C(F)(F)F)C2(C)C)cccc1-c1ccccc1
Reply text: 0.0

Inquiry: What would you report for Cc1cnc(C2=NC(C)(C(C)C)C(=O)N2)c(C(=O)O)c1 (stereo not drawn) ?
Reply text: 0.0

Inquiry: Now consider CC(C)=CC1C(C(=O)OCc2coc(Cc3ccccc3)c2)C1(C)C (stereo not drawn) .
Reply text: 0.0

* * *

Assay: CCTE_Simmons_MITO_inhib_resp_rate: CCTE's HepG2 Seahorse XF Respirometric Screening Assay at Inhibited Respiratory State [full ETC block], Simmons Lab (AID 2284006)
Details: actives raise or lower the signal
Activity calls are given as the source filed them. Rule for the calls: active = hit-call score of the fitted dose curve at least 0.9, where 1 is the maximum; inactive = score below 0.9.
Log the outcome using a class from active, inactive

// known answers, use as guide
1) CC(C)N1C(=O)N(c2ccccc2)CSC1=NC(C)(C)C; inactive
2) N#Cc1c[nH]cc1-c1cccc2c1OC(F)(F)O2; inactive
3) CCNP(=S)(OC)O/C(C)=C/C(=O)OC(C)C (stereo unspecified); inactive
4) Cc1ccc(N=CN(C)C=Nc2ccc(C)cc2C)c(C)c1; inactive

Inquiry: Hey, what did the test say about CO/N=C(/C1=NOCCO1)c1ccccc1Oc1ncnc(Oc2ccccc2Cl)c1F ?
Reply text: active

Inquiry: Here is the next molecule: CC1(C)C(C=C(Cl)Cl)C1C(=O)OC(C#N)c1cccc(Oc2ccccc2)c1 (stereo unspecified)
Reply text: inactive

* * *

Target: Oxysterols receptor LXR-beta (Homo sapiens)
Assay: ATG_LXRb_TRANS: Attagene TRANS-FACTORIAL HepG2 Assay for human Liver X Receptor beta (LXRb) (AID 2282981)
Settings: HepG2 Attagene TRANS GAL4-LXRb reporter, mRNA
Records with an inconclusive call do not appear. Activity calls are given as the source filed them. Rule for the calls: active = hit-call score of the fitted dose curve at least 0.9, where 1 is the maximum; inconclusive = response in the unintended direction; inactive = score below 0.9.
Return exactly one item of true = active, false = inactive

Worked cases, answers included:
1. CCCCC(C#N)(Cn1cncn1)c1ccc(Cl)cc1 (stereo not given); false
2. O=P(O)(O)CCCl; false
3. COCC(C)N(C(=O)CCl)c1c(C)csc1C (stereo not given); false

Inquiry: Which result was noted for this molecule in the test: COCc1cnc(C2=NC(C)(C(C)C)C(=O)N2)c(C(=O)O)c1 (stereo not given)
Reply text: false

Inquiry: Same for CCOP(=O)(OCC)Oc1nc(Cl)c(Cl)cc1Cl
Reply text: false

Inquiry: Same again, this time with CC1(C)CON(Cc2ccccc2Cl)C1=O
Reply text: false

Inquiry: # repeat for Clc1nc(Cl)nc(Nc2ccccc2Cl)n1
Reply text: false
